Target: HDAC6 (Homo sapiens)
Construct: BC069243; Cat. #50006) is full-length with N-terminal GST tag; GST (N); purchased BPS Biosciences 50006; host or cells: baculovirus infected Sf9 cells
Sequence (Q9UBN7 1-1215): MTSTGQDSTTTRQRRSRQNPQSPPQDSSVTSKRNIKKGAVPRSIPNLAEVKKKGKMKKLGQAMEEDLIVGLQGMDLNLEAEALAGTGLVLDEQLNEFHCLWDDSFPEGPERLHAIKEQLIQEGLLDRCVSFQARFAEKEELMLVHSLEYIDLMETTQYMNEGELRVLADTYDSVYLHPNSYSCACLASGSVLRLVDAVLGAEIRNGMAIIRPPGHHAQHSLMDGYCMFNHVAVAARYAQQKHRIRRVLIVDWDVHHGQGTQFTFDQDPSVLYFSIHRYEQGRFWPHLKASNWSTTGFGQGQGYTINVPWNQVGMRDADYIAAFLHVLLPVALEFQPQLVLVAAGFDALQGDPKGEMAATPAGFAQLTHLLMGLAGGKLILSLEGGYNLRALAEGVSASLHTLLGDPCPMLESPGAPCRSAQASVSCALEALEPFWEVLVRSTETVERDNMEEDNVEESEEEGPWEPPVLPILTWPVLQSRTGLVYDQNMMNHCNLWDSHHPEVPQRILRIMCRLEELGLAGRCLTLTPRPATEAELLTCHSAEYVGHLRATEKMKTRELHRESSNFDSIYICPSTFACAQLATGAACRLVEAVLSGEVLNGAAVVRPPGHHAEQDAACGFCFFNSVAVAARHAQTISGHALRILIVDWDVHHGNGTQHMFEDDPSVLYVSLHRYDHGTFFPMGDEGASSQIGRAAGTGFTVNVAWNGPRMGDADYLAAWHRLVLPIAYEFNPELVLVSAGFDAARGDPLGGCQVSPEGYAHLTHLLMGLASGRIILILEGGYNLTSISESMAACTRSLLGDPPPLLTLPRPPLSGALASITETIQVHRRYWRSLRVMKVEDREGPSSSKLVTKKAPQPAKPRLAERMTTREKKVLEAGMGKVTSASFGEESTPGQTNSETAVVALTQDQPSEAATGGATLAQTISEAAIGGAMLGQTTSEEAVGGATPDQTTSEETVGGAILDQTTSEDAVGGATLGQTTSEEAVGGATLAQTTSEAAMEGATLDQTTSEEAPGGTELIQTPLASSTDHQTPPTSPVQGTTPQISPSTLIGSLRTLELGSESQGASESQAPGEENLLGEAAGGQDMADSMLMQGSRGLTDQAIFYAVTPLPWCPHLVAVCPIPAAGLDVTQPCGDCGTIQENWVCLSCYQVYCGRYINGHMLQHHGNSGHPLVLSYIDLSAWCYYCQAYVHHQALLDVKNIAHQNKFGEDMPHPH
Test: HDAC enzyme activity assay (fluorogenic substrate), HDAC6
Type: biochemical
Conditions: recombinant enzyme; read-out: HDAC6 inhibition (IC50)
pIC50: −log10 of the molar value.
The following molecules are shown together with reported pIC50 values.

Use these answered entries as a reference point.
# molecule, reading
records = [
    ("CCCc1nn(C)c2c(=O)[nH]c(-c3cc(CC4CCN(c5ncc(C(=O)NO)cn5)CC4)ccc3OCC)nc12", "5.00 to 6.00"),
    ("CCCc1nn(C)c2c(=O)[nH]c(-c3cc(Cc4ccc(C(=O)NO)cc4)ccc3OCC)nc12", "6.00 to 8.00"),
    ("CCCc1nn(C)c2c(=O)[nH]c(-c3cc(Nc4ccc(C(=O)NO)cc4)ccc3OCC)nc12", "6.00 to 8.00"),
    ("CCCc1nn(C)c2c(=O)[nH]c(-c3cc(C(O)c4ccc(C(=O)NO)cc4)ccc3OCC)nc12 (stereo not drawn)", "6.00 to 8.00"),
    ("CCCc1nc(C)c2c(=O)[nH]c(-c3cc(-c4ccc(C(=O)NO)cc4)ccc3OCC)nn12", "6.00 to 8.00"),
]

Value lookup for pIC50; key = `CCCc1nn(C)c2c(=O)[nH]c(-c3cc(Cc4ccc(C(=O)NO)cc4OC)ccc3OCC)nc12`
< 5.00

Value lookup for pIC50; key = `CCCc1nn(C)c2c(=O)[nH]c(-c3cc(NC4CCN(c5ccc(C(=O)NO)cc5)CC4)ccc3OCC)nc12`
5.00 to 6.00

Value lookup for pIC50; key = `CCCc1nc(C)c2c(=O)[nH]c(-c3cc(Cc4ccc(/C=C/C(=O)NO)cc4)ccc3OCC)nn12`
6.00 to 8.00

Value lookup for pIC50; key = CCCc1nn(C)c2c(=O)[nH]c(-c3cc(CC4CC(C(=O)NO)C4)ccc3OCC)nc12 (racemic) [Example 1-19]
6.00 to 8.00

Value lookup for pIC50; key = CCCc1nn(C)c2c(=O)[nH]c(-c3cc(N4CCC5(CCCN(c6ncc(C(=O)NO)cn6)C5)C4)ccc3OCC)nc12 (stereo not drawn)
5.00 to 6.00

Value lookup for pIC50; key = `CCCc1nn(C)c2c(=O)[nH]c(-c3cc(Cc4ccc(C(=O)NO)s4)ccc3OCC)nc12`
6.00 to 8.00

Value lookup for pIC50; key = `CCCc1nn(C)c2c(=O)[nH]c(-c3cc(N4CCC(CCC(=O)NO)CC4)ccc3OCC)nc12`
5.00 to 6.00

Value lookup for pIC50; key = `CCCc1nc(C)c2c(=O)[nH]c(-c3cc(Cc4ccc(C(=O)NO)s4)ccc3OCC)nn12`
6.00 to 8.00

Value lookup for pIC50; key = `CCCc1nn(C)c2c(=O)[nH]c(-c3cc(N(C)C4CCN(c5ncc(C(=O)NO)cn5)CC4)ccc3OCC)nc12`
6.00 to 8.00

Value lookup for pIC50; key = CC1CN(Cc2ccc(C(=O)NO)s2)CC1c1nc2c(cnn2C2CCCC2)c(=O)[nH]1 (racemic)
6.00 to 8.00
